- System: 299254-011-R-J1-PDC complex spheroids viability;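 also: spheroids exposed to the agents for seven days before readout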
- protocol.text: Anticancer human tumor 299254-011-R-J1-PDC patient-derived melanoma cell line growth inhibition [GQUAD]
- run.conditions: curve of first compound; second compound 0.1 µM
- Description: DNA G-quadruplex Stabilizer Agents in Combinations in Complex Spheroids A high-throughput screen of multi-cell type tumor spheroids was designed to identify active combinations of DNA G-quadruplex stabilizer agents and targeted small molecules. […] Compounds. […] If the clinical Cmax for an agent had not been determined, the highest concentration tested was 10 microM. […]
pIC50: −log10 of the molar value.
value.kind: pIC50

{"columns": ["molecule", "comparison.symbol", "value.reported"],
 "data": [
  ["CC(=O)O[C@H]1C(=O)[C@@]2(C)[C@H]([C@H](OC(=O)c3ccccc3)[C@]3(O)C[C@H](OC(=O)[C@H](O)[C@@H](NC(=O)c4ccccc4)c4ccccc4)C(C)=C1C3(C)C)[C@]1(OC(C)=O)CO[C@@H]1C[C@@H]2O + CN(C)c1ccc(Nc2c3ccc(NC(=O)CCN4CCCC4)cc3nc3cc(NC(=O)CCN4CCCC4)ccc23)cc1", "=", 6.44],
  ["O=c1[nH]cc(F)c(=O)[nH]1 + CN(C)c1ccc(Nc2c3ccc(NC(=O)CCN4CCCC4)cc3nc3cc(NC(=O)CCN4CCCC4)ccc23)cc1", "<", 5.00],
  ["CCCS(=O)(=O)Nc1ccc(F)c(C(=O)c2c[nH]c3ncc(-c4ccc(Cl)cc4)cc23)c1F + Cc1[nH]c2ccc(F)cc2c1-c1nc2c3cccnc3c3ncccc3c2[nH]1", "=", 5.07],
  ["Cc1cccc(N(C)C(=O)C2C(O)CCN2c2nc(C)cc(C(F)(F)F)c2C#N)c1 (stereo not given) + Cc1cnc(CNC(=O)c2c(=O)c3ccc(N4CCCN(C)CC4)nc3n3c2sc2ccccc23)cn1", "<", 5.00],
  ["O=C(c1cc(Cc2n[nH]c(=O)c3ccccc23)ccc1F)N1CCN(C(=O)C2CC2)CC1 + Cc1cnc(CNC(=O)c2c(=O)c3ccc(N4CCCN(C)CC4)nc3n3c2sc2ccccc23)cn1", "<", 5.00],
  ["CC[C@@]1(O)C(=O)OCc2c1cc1n(c2=O)Cc2cc3c(CN(C)C)c(O)ccc3nc2-1 + Cc1cnc(CNC(=O)c2c(=O)c3ccc(N4CCCN(C)CC4)nc3n3c2sc2ccccc23)cn1", "<", 6.50],
  ["Nc1ccn(C2OC(CO)C(O)C2(F)F)c(=O)n1 (stereo not given) + CN(C)c1ccc(Nc2c3ccc(NC(=O)CCN4CCCC4)cc3nc3cc(NC(=O)CCN4CCCC4)ccc23)cc1", "<", 5.00],
  ["COc1ccc([C@@H](O)c2cc(-c3ncnc4cc(N5CCOCC5)ccc34)c(F)cc2Cl)nn1 + Cc1cnc(CNC(=O)c2c(=O)c3ccc(N4CCCN(C)CC4)nc3n3c2sc2ccccc23)cn1", "=", 5.16],
  ["COc1ncnc(C2CC2)c1-c1ncc2cnn(Cc3ccc(-c4nc(C(F)(F)F)cn4C(C)C)cc3)c2n1 + CN(C)c1ccc(Nc2c3ccc(NC(=O)CCN4CCCC4)cc3nc3cc(NC(=O)CCN4CCCC4)ccc23)cc1", "<", 5.00],
  ["CC(=O)O[C@H]1C(=O)[C@@]2(C)[C@H]([C@H](OC(=O)c3ccccc3)[C@]3(O)C[C@H](OC(=O)[C@H](O)[C@@H](NC(=O)c4ccccc4)c4ccccc4)C(C)=C1C3(C)C)[C@]1(OC(C)=O)CO[C@@H]1C[C@@H]2O + Cc1[nH]c2ccc(F)cc2c1-c1nc2c3cccnc3c3ncccc3c2[nH]1", "=", 6.56]
]}
